Protocol Summary: NCI Yeast Anticancer Drug Screen. Data for the rad50 strain (AID 155);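 further: 0% = growth of vehicle-only cultures of the same strain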
Assay Setup: S. cerevisiae rad50 strain growth inhibition; at 11.0 µM
The panel holds about 79,000 compounds, 15% with a hit somewhere; the sample as a whole holds those more often. Calls of active or inactive are those of the source. No stated cut-off is given here; in the data, active means growth inhibition above about 70%; inactive means the rest.
Labels: YES (active), NO (inactive)

Molecule | Assigned Category
COc1ccccc1/C=C\C(=O)C1COCN1 (stereo unspecified) | NO
C/C(=N\OCC(O)CNCCSCc1ccccc1)c1ccccc1Cl (stereo unspecified) | NO
N#C/C(=C\NC(=S)Nc1ccc(S(N)(=O)=O)cc1)C(=O)c1ccc2ccccc2c1 | NO
CCCCN(CCCC)c1ccc(N=Nc2ccc(S(=O)(=O)O)cc2)cc1 | NO
CC(C)(N=Nc1ccc(Cl)cc1)[N+](=O)[O-] | YES
O=c1[nH]c2c([N+](=O)[O-])cccc2c2ccccc12 | NO

====

Protocol Summary: NCI Yeast Anticancer Drug Screen. Data for the bub3 strain (AID 167)
Assay Setup: S. cerevisiae bub3 mutant strain, at 33.0 µM, hits give high values
About 79,000 compounds went through this panel and 15% of them were active in at least one assay; those are over-represented in the sample as a whole.

Compound | Uom | growth inhibition
O=C(O)c1ccccc1C(=O)OC1CCc2ccccc2C1 (stereo not drawn) | % | 17
CC1=CC(=C(c2ccc(N)c(C)c2)c2ccc(N)c(C)c2)C=CC1=N | % | 54
CCCCCc1c(CCCC)c(=O)[nH]c2cc(CNCC(OC)OC)ccc12 | % | 98
COc1cc(NCCCCNCC(C)(C)C)c2ncccc2c1 | % | 19
O=C1C(CCSc2ccccc2)C(=O)N(c2ccccc2)C1c1ccccc1 (stereo not drawn) | % | 96
COC(=O)c1ccccc1N=NNc1cccc(SC)c1 | % | 94
Nc1cc(Cl)ccc1Nc1ccccc1 | % | -8
O=C1c2ccccc2-c2cc3ccccc3c(=O)n21 | % | 68
CN(C)N=Nc1ccc(N(C)C)cc1 | % | -5
O=C(CCCN1CCC(Nc2ccc(F)cc2)(c2nnnn2C2CCCCC2)CC1)c1ccc(F)cc1 | % | 22
CCN(CC)CCNc1ccc(C)c2sc3ccc(O)cc3c(=O)c12 | % | 91
CC(C)=CCc1c2c(c(O)c3c(=O)c(-c4ccc(O)c(O)c4)coc13)C=CC(C)(C)O2 | % | 93
CC(=O)O[C@H]1CC[C@@]2(C)C(=CC[C@@H]3C2CC[C@]2(C)C(=O)NC(=O)CC32)C1 (stereo partly drawn) | % | -20
O=C(O)c1ccc2cc(Cl)c3ccccc3c2c1 | % | 31
CCOc1ccc(N)c(S)c1 | % | 97
O=[N+]([O-])c1cccc2nc3ccccc3c(NCCCN3CCCCC3)c12 | % | 97
O=[N+]([O-])[O][Sn]([O][Sn]([O][N+](=O)[O-])([c]1ccccc1)[c]1ccccc1)([c]1ccccc1)[c]1ccccc1 | % | 6
O=C(c1ccccc1)[C@H]1Nc2ccc(Cl)cc2[C@H]2OCCC[C@@H]12 | % | 86
CC1=NN(C(=O)c2ccccc2O)C(=O)/C1=C/c1ccco1 | % | 95
Cc1ccc([N+](=O)[O-])c2c(NCCC[N+](C)(C)[O-])c3ccccc3nc12 | % | -13
CC1=C(C)C(=O)C2=C(OCCO2)C1=O | % | 18
N#C/C(=C\NC(=S)Nc1ccc(S(N)(=O)=O)cc1)C(=O)c1ccc2ccccc2c1 | % | -3
CCC(C)COC(=O)Nc1cccc(Cl)c1 (stereo not drawn) | % | 27

====

Protocol Summary: NCI Yeast Anticancer Drug Screen. Data for the sgs1 strain (AID 173);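 further: 0% = growth of vehicle-only control cultures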
Assay Setup: S. cerevisiae sgs1 mutant, at 100.0 µM
Compounds without any hit were thinned out: in the full panel of roughly 79,000, 15% have a hit. The source made the active and inactive calls. Cut-off read from the data, not from the text of the source: active = growth inhibition above about 70%; inactive = the rest.
Outcomes: active, inactive

Item Smiles | Assigned Category
O=C1Oc2ccccc2C(=O)/C1=C/N1C(=O)N/C(=C\c2ccccc2Br)C1=O | active
O=[N+]([O-])c1cccc2nc3ccccc3c(NCCCN3CCCCC3)c12 | active
CC(C)OP(=O)(OC(C)C)C(=NCCO)NNc1ccc([N+](=O)[O-])cc1 | active
Nc1cc(Cl)ccc1Nc1ccccc1 | active
CC1=NN(C(=O)c2ccccc2O)C(=O)/C1=C/c1ccco1 | active
Cc1c2c(nc3ccccc13)C(=O)c1cccnc1C2=O | active
CC(C)=CCc1c2c(c(O)c3c(=O)c(-c4ccc(O)c(O)c4)coc13)C=CC(C)(C)O2 | active
O=C1C[C@H]2[C@H](c3ccc(Br)cc3)[C@H]3C(=O)c4ccccc4NC(=O)[C@@H]3[C@@]2(O)c2ccccc2N1 | inactive
O=Cc1ccccc1C=O | active
O=C1/C(=C/c2ccc(Cl)c(Cl)c2)CNC/C1=C\c1ccc(Cl)c(Cl)c1 | active

====

Protocol Summary: NCI Yeast Anticancer Drug Screen. Data for the rad14 strain (AID 159);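 further: 0% = growth of vehicle-treated control cultures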
Assay Setup: S. cerevisiae rad14 strain growth inhibition; at 100.0 µM
Compounds without any hit were thinned out: in the full panel of roughly 79,000, 15% have a hit. Activity calls are given as the source filed them. No stated cut-off is given here; in the data, active means growth inhibition above about 70%; inactive means the rest. Residues, ends and D or L forms follow the SMILES beside them. *: point of attachment. Fmoc = O=C(OCC1c2ccccc2-c2ccccc21)*; Boc = CC(C)(C)OC(=O)*
Classes used: active, inactive

Compound | Assigned Category
Cc1cccc2c(NCCCN(C)C)c3c([N+](=O)[O-])ccc(C)c3nc12 | active
CCOP(=O)(OCC)/C(C#N)=C\c1cccc2ccccc12 | active
COc1ccc2c(c1)CCCC(Br)C2=O (configuration not stated) | active
CC(C)N(CCCNc1c2ccccc2nc2cccc([N+](=O)[O-])c12)C(C)C | active
COc1ccc(-c2cc(-c3cc(C)cc(Cl)c3O)nc3[nH]c(=S)[nH]c(=S)c23)cc1 | active
CC(C)(C)OC(=O)NCCCCC(NC(=O)C(Cc1c[nH]c2ccccc12)NC(=O)OCC1c2ccccc2-c2ccccc21)C(=O)O (configuration not stated) (Fmoc-Trp-Lys(Boc)-OH; configuration not given here) | active
O=C1C2=C(c3ccccc31)C(c1ccccc1)N1C(=O)CSC1=N2 (configuration not stated) | active
CC(C)OC(=O)NNc1cccc(Cl)c1 | active
O=C(C#Cc1ccccc1)/C=C/c1ccccc1 | active
CCOC(=O)Nc1ccc(C)c(NC(=O)OCC)c1 | inactive
CC(=O)CCC1=C(C)C(=O)C(=O)C(C)=C1O | active
CCCCCCCN1C(=O)c2ccccc2C1=O | inactive

====

growth inhibition values for the compounds below.
Protocol Summary: NCI Yeast Anticancer Drug Screen. Data for the sgs1 strain (AID 173);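 further: 0% = growth of vehicle-only control cultures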
Assay Setup: S. cerevisiae sgs1 mutant, at 11.0 µM, hits give high values
The panel holds about 79,000 compounds, 15% with a hit somewhere; the sample as a whole holds those more often.

Compound | growth inhibition / %
CC(C)[Si]1(C(C)C)OCC2OC(n3cnc4c(N)ncnc43)C(N)C2O[Si](C(C)C)(C(C)C)O1 (stereo not drawn) | 19
COc1ccc2c(c1)CCCC(Br)C2=O (stereo not drawn) | 35
OC(Cc1cccc2ccccc12)CN1CCC(c2ccccc2)CC1 (stereo not drawn) | 67
O=C(Nc1cccs1)c1ccccc1 | -1
CCN(CC)CCNc1ccc(C)c2sc3ccc(O)cc3c(=O)c12 | 43
CSc1nc(-c2ccccc2)nc(=[N+]2CCOCC2)s1 | 72
COc1ccc2nc3cccc([N+](=O)[O-])c3c(NCCCCCC(=O)O)c2c1 | 98
O=C(Nn1c(-c2ccccc2)nc2ccccc2c1=O)c1ccc(CS)cc1 | 21
O=[N+]([O-])c1cc[n+]([O-])c(Cl)c1 | 34
CCCCN(CCCC)c1ccc(N=Nc2ccc(S(=O)(=O)O)cc2)cc1 | 90
Fc1cc(F)c(F)c(S)c1F | -27
O=C1c2cccc3cccc(c23)C(=O)N1CCNCCN1C(=O)c2cccc3cccc(c23)C1=O | -1
O=C(Nc1ccc(Cl)cc1)c1cc2cc(N=Nc3ccccc3Cl)ccc2oc1=O | 70
CC1=NN(C(=O)c2ccccc2O)C(=O)/C1=C/c1ccco1 | 67
CC(C(=O)N1C(=O)N(C(=O)C(C)C(O)c2ccccc2)C2CCCCC21)C(O)c1ccccc1 (stereo not drawn) | 0
CCCCCCCCCCCNC=O | -19
CCOP(=O)(OCC)/C(C#N)=C/c1cccc(Oc2ccccc2)c1 | 44
CSC(=S)N/N=C/c1ccccc1 | 21
CC(C)(C)c1ccc2c(c1)C(=O)c1ccccc1C2=O | 0
COc1ccc2cc3c4cc5c(cc4cc[n+]3cc2c1OC)OCO5 | 83
COc1cc(OC)c(CSCC(NC(=O)OCC2c3ccccc3-c3ccccc32)C(=O)O)c(OC)c1 (stereo not drawn) | 45
NC(N)=NS(=O)(=O)c1ccc(Nc2c3ccccc3nc3c(C(=O)NC(CO)(CO)CO)cccc23)cc1 | 2
CCN(CC)CCNc1ccc2nc(C)n3c4ccc(O)cc4c(=O)c1c23 | 1
